Hi there, I'd appreciate the recorded Actual amount of compound for 50% inhibition of 6 units of streptokinase for every entry that follows.
- ASSAY_TARGET: streptokinase-induced fibrinolysis (fibrinogen, plasminogen, thrombin system)
- ASSAY_TEXT: in vitro antifibrinolytic activity, 50% inhibition of streptokinase-induced fibrinolysis
- Type: biochemical
- RUN_CONDITIONS: in vitro; fibrinogen, plasminogen, thrombin plus 6 units of streptokinase

Some solved cases for reference:
- COMPOUND: "NCC1CCC(C(=O)O)CC1 (single isomer, unassigned; isomer 4) [Isomeric AMCHA, comprising 10% active isomer]"
  TEST_VALUE: "2 γ"
- COMPOUND: "NCC1CCC(C(=O)O)CC1 (single isomer, unassigned; isomer 4) [Inactive-AMCHA isomer]"
  TEST_VALUE: "30 γ"
- COMPOUND: "NCC1CCC(C(=O)O)CC1 (single isomer, unassigned; isomer 4) [Active-AMCHA isomer]"
  TEST_VALUE: "0.2 γ"

Record NCCCCCC(=O)O [EACA, epsilon-aminocaproicacid] / streptokinase-induced fibrinolysis (fibrinogen, plasminogen, thrombin system), Actual amount of compound for 50% inhibition of 6 units of streptokinase recorded as 4 γ
